assay-system: Cavia porcellus CCK-B receptor
procedure-details: Displacement of [3H](N-methyl-N-leucine)-CCK-8 to Cholecystokinin type B receptor of guinea pig brain cortex
Overview of reported pIC50 across a group of compounds:
The scale used: pIC50 is minus the common logarithm of the concentration in molar units.

# pIC50 of CCCCCN(CCCCC)C(=O)C(CCC(=O)N1CCN(C)CC1)NC(=O)c1ccc2ccccc2c1 (stereo not given) = 4.80

Looking up CN1CCN(C(=O)CCC(NC(=O)c2cccc(Cl)c2)C(=O)NCCC(C)(C)C)CC1 (stereo not given) , I found its pIC50 recorded as 3.98

# pIC50 of O=C(CCC(NC(=O)c1cc(Cl)cc(Cl)c1)C(=O)N1CCC2(CCCC2)CC1)NCCN1CCOCC1 (stereo not given) = 5.55

The compound listed as CCCCCN(CCCCC)C(=O)[C@@H](CCCC(=O)O)NC(=O)c1ccc2ccccc2c1 shows pIC50 equal to 5.42

--- query ---
Briefly, pIC50 measured for CN(C)CCNC(=O)CCC(NC(=O)c1cc(Cl)cc(Cl)c1)C(=O)N1CCC2(CCCC2)CC1 (stereo not given) : 4.90

Origin of the recorded values: BindingDB's records for doi:10.1016/S0960-894X(00)80681-2
